I'd appreciate it if you could supply TFE3 % values for the items below.
system: endogenous TFE3; test: TFE3 nuclear translocation, immunocytochemistry high-content imaging; assay type: cell-based; conditions: PKIS2 primary screening
Output spec: scalar in %, unitless text.

Task item: Need TFE3 %, item Cn1cncc1C(=O)NC1CCN(c2ccnc(Nc3ccc(F)cc3)n2)C1 (stereo not drawn)
Reply: 10.47

Task item: Item O=C(Nc1cccc(-c2nn3ncccc3c2-c2ccnc(Nc3ccccc3)n2)c1)c1c(F)cccc1F [UNC10225232A] has what recorded TFE3 %?
Reply: 11.89

Task item: What measured TFE3 % goes with Cc1ccc(C)c(NC(=O)NC2CCN(c3ccnc(Nc4ccc(F)cc4)n3)C2)c1 (stereo not drawn) ?
Reply: 10.49

Task item: Could you share which TFE3 % value was measured for COc1cc2nccc(Nc3ccc(NC(=O)c4ccc(C)cc4)c(O)c3)c2cc1OC.Cl [UNC10225013A] ?
Reply: 46.99

Task item: Fill in the blank: the reported TFE3 % of Cc1ccccc1COc1cc(-n2cnc3cc(Cl)ccc32)sc1C(N)=O [UNC10225491A] is ____.
Reply: 6.85

Task item: Name the reported TFE3 % value associated with the compound O=C(Nc1n[nH]c2cc(-c3ccccc3F)ccc12)C1CC1
Reply: 7.51
